- test.system: human ACVR2A (human, UniProt P27037 20-135, limits assumed); note: test concentration or dose not given here
- Sequence (P27037 20-135 limits assumed): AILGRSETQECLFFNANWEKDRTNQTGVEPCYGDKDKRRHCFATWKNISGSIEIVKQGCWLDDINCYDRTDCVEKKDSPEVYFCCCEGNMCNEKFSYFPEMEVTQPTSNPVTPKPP
- assay.overview: ELISA
The entries below are paired with their reported optical density.
Answer format: numeric, OD implied, no suffix.

Sample records with optical density:
| binder | optical density (OD) |
| --- | --- |
| 366_D02 (antibody, V domains shown, VH/VL only) VH: EVQLLESGGGLVQPGGSLRLSCAASGFTFSSYSMNWVRQAPGKGLEWVASINYNGGYTSYADSVKGRFTISRDNSKNTLYLQMNSLRAEDTAVYYCARSATWHDTHLDYWGQGTLVTVSS VL: DIQMTQSPSSLSASVGDRVTITCRASQSILSYVNWYQQKPGKAPKLLIYATTSLASGVPSRFSGSGSGTDFTLTISSLQPEDFATYYCQQSYDLPLTFGGGTKVEIK | 2.27 |
| 374_F02 (antibody, V domains shown, VH/VL only) VH: EVQLLESGGGLVQPGGSLRLSCAASGFTFDSYSMNWVRQAPGKGLEWVANINYNSGYTSYADSVKGRFTISRDNSKNTLYLQMNSLRAEDTAVYYCARSANWHDTALDYWGQGTLVTVSS VL: DIQMTQSPSSLSASVGDRVTITCRASQSIVSYLNWYQQKPGKAPKLLIYAASSLQSGVPSRFSGSGSGTDFTLTISSLQPEDFATYYCQQSYELPLTFGGGTKVEIK | 3.56 |

Qu. Identify optical density associated with the binder 374_E07 (antibody, V domains shown, VH/VL only) VH: EVQLLESGGGLVQPGGSLRLSCAASGFTFSDYSMNWVRQAPGKGLEWVAGINYNGGYTSYADSVKGRFTISRDNSKNTLYLQMNSLRAEDTAVYYCARSANWHDTALDYWGQGTLVTVSS VL: DIQMTQSPSSLSASVGDRVTITCRASQSIITYVNWYQQKPGKAPKLVIYAATSRASGVPSRFSGSGSGTDFTLTISSLQPEDFATYYCQQSYNTPLTFGGGTKVEIK
Ans. 3.63
